The values you see were collected from paper PMC5540273.

tested on: PIK3C2G; details: concentration: 1 μM,replicates: in singlicate; n = 1;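 also: KINOMEscan kinase panel screen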
assay endpoint: %Inh (%)
Answer in %, number only, no unit symbol.

Request: Annotate the compound "CN(c1cccc(CNc2nc(Nc3ccc4c(c3)CC(=O)N4)ncc2C(F)(F)F)c1)S(C)(=O)=O" with its measured %Inh.
Response: 0

Request: Annotate the compound COC(=O)c1cccc(NC(=O)NC2CCN(c3ccnc(Nc4cc(OC)c(OC)c(OC)c4)n3)C2)c1 (centres unmarked) with its measured %Inh.
Response: 0

Request: Annotate the compound "Cn1ccc2ncnc(Oc3ccc(NC(=O)Nc4cccc(C(F)(F)F)c4)c(Cl)c3)c21" with its measured %Inh.
Response: 5

Request: Annotate the compound CC(C(=O)NC1CCN(c2ccnc(Nc3ccc(F)cc3)n2)C1)c1ccc(Cl)cc1 (centres unmarked) with its measured %Inh.
Response: 0

Request: Annotate the compound "CC(C)S(=O)(=O)N1CCN(Cc2ccc3c(c2)nc(NC(=O)c2ccsc2)n3C[C@H](O)c2ccccc2)CC1" with its measured %Inh.
Response: 0

Request: Annotate the compound "O=C(Nc1ccccc1)c1cccc(Oc2ccc3nccn3n2)c1" with its measured %Inh.
Response: 6

Request: Annotate the compound "Cn1ccc2ncnc(Oc3ccc(NC(=O)Nc4cnn(C(C)(C)C)c4)c(Cl)c3)c21" with its measured %Inh.
Response: 8

Request: Annotate the compound "Cc1ccc(CC(=O)N2CCc3cc(-c4cn(C)c5ncnc(N)c45)ccc32)cc1" with its measured %Inh.
Response: 4

====

system: RAF1; conditions: concentration: 1 μM,replicates: in singlicate; n = 1
assay endpoint: %Inh (%)
Answer in %, number only, no unit symbol.

Request: Annotate the molecule "c1ccc(Oc2ccc(Nc3ccnc4ccc(-c5ccccn5)cc34)cc2)cc1" with its measured %Inh.
Response: 19

Request: Annotate the molecule "Cc1ccc(Nc2ccnc(Nc3ccc4c(c3)CS(=O)(=O)C4)n2)cc1O.Cl" with its measured %Inh.
Response: 42

Request: Annotate the molecule "O=C(Nc1ccccc1)c1cccc(Oc2ccc3nccn3n2)c1" with its measured %Inh.
Response: 78

Request: Annotate the molecule "Nc1nccc(-c2ccc3c(N)n[nH]c3c2)n1" with its measured %Inh.
Response: 17

Request: Annotate the molecule "C[C@@H](Oc1cc(-n2cnc3cc(-c4cnn(C)c4)ccc32)sc1C(N)=O)c1ccccc1Cl" with its measured %Inh.
Response: 13

Request: Annotate the molecule "C[C@@H]1CNc2c(sc3ccc4nc(-c5ccc(O)cc5)ccc4c23)C(=O)N1" with its measured %Inh.
Response: 0

Request: Annotate the molecule "COC(=O)Nc1nc2cc(Oc3ccc(NC(=O)Nc4cc(C(F)(F)F)ccc4Cl)cc3)ccc2[nH]1.Cl" with its measured %Inh.
Response: 89

Request: Annotate the molecule "O=C(NOCC1CC1)c1cc(Br)c(F)c(F)c1Nc1ccc(I)cc1Cl" with its measured %Inh.
Response: 0

Request: Annotate the molecule "C[C@@H]1CCN(C(=O)N2CCCC2)C[C@@H]1N(C)c1ncnc2[nH]ccc12" with its measured %Inh.
Response: 10

Request: Annotate the molecule "CN(c1cccc(CNc2nc(Nc3ccc4c(c3)CC(=O)N4)ncc2C(F)(F)F)c1)S(C)(=O)=O" with its measured %Inh.
Response: 0

Request: Annotate the molecule "Cn1ccc2ncnc(Oc3ccc(NC(=O)Nc4cc(C(C)(C)C)on4)c(Cl)c3)c21" with its measured %Inh.
Response: 78

Request: Annotate the molecule "O=C1NCCc2[nH]c(-c3ccncc3)cc21" with its measured %Inh.
Response: 17

Request: Annotate the molecule "CS(=O)(=O)Nc1ccc(-c2ccnc3[nH]ccc23)cc1" with its measured %Inh.
Response: 12

Request: Annotate the molecule "COC(=O)c1cccc(NC(=O)NC2CCN(c3ccnc(NCc4ccc(F)cc4)n3)CC2)c1" with its measured %Inh.
Response: 15

Request: Annotate the molecule "Cn1ccc2ncnc(Oc3ccc(NC(=O)Nc4cncc(C(F)(F)F)c4)c(Cl)c3)c21" with its measured %Inh.
Response: 100

Request: Annotate the molecule "O=C(NCC1CC1)c1ccc(-c2cc(C(=O)NC3CC3)ccc2F)cc1" with its measured %Inh.
Response: 0

Request: Annotate the molecule "O=C(Nc1cccc(C(F)(F)F)c1)c1cccc(Oc2ccc3nccn3n2)c1" with its measured %Inh.
Response: 75

====

tested on: PAK7; settings: concentration: 1 μM,replicates: in singlicate; n = 1
Respond with label 1 for %Inh values of 6% and above, label 0 for values below.

Request: Does the compound "Cn1ccc2ncnc(Oc3ccc(NC(=O)Nc4cc(C(C)(C)C)on4)c(Cl)c3)c21" have recorded %Inh that is 6% or more?
Response: label 0

Request: Does the compound "Nc1nccc(-c2ccc3c(N)n[nH]c3c2)n1" have recorded %Inh that is 6% or more?
Response: label 0

Request: Does the compound N#Cc1cccc(C(=O)NC2CCN(c3ccnc(Nc4ccc(F)cc4)n3)C2)c1 (stereo not drawn) have recorded %Inh that is 6% or more?
Response: label 0

Request: Does the compound "CC(=O)Nc1ccc(-c2cc3ncnc(SCC(=O)O)c3s2)cc1" have recorded %Inh that is 6% or more?
Response: label 1

Request: Does the compound "Cc1ccc2c(-c3ccnc(Nc4ccc(C(F)(F)F)cc4)n3)cnn2n1" have recorded %Inh that is 6% or more?
Response: label 0

Request: Does the compound "Cc1ccc(C(=O)Nc2ccc(Oc3ccc4nc(NC(=O)C5CC5)cn4c3)c(F)c2)c(=O)n1-c1ccccc1" have recorded %Inh that is 6% or more?
Response: label 0

Request: Does the compound "CCN1CCN(CCCC(=O)Nc2n[nH]c3nc(-c4ccc(O)cc4)c(Br)cc23)CC1" have recorded %Inh that is 6% or more?
Response: label 1

Request: Does the compound "CCn1c(-c2nonc2N)nc2cncc(CNC3CCNCC3)c21.Cl" have recorded %Inh that is 6% or more?
Response: label 0

Request: Does the compound "Cc1n[nH]c2cc(Nc3ccnc(Nc4cccc(CN5CCOCC5)c4)n3)ccc12" have recorded %Inh that is 6% or more?
Response: label 1

Request: Does the compound "O=C(Nc1n[nH]c2cc(-c3ccco3)ccc12)C1CC1" have recorded %Inh that is 6% or more?
Response: label 1

Request: Does the compound "Cn1ccc2ncnc(Oc3ccc(NC(=O)Nc4cccc(C(F)(F)F)c4)c(Cl)c3)c21" have recorded %Inh that is 6% or more?
Response: label 0

Request: Does the compound CC(C(=O)NC1CCN(c2ccnc(Nc3ccc(F)cc3)n2)C1)c1ccc(Cl)cc1 (stereo not drawn) have recorded %Inh that is 6% or more?
Response: label 0

Request: Does the compound "Cc1ccc(Nc2ccnc(Nc3ccc4c(c3)CS(=O)(=O)C4)n2)cc1O.Cl" have recorded %Inh that is 6% or more?
Response: label 1

Request: Does the compound "CN1CCN(CCCNc2nccc(-c3c(-c4ccc(F)cc4)nn4cc(C(N)=O)ccc34)n2)CC1" have recorded %Inh that is 6% or more?
Response: label 1

====

tested on: EPHA1; settings: concentration: 1 μM,replicates: in singlicate; n = 1
assay endpoint: %Inh (%)
Answer in %, number only, no unit symbol.

Request: Annotate the compound "COC(=O)Nc1nc2cc(Oc3ccc(NC(=O)Nc4cc(C(F)(F)F)ccc4Cl)cc3)ccc2[nH]1.Cl" with its measured %Inh.
Response: 91

Request: Annotate the compound "Cc1ccc2c(-c3ccnc(Nc4ccc(C(F)(F)F)cc4)n3)cnn2n1" with its measured %Inh.
Response: 0

Request: Annotate the compound "Cc1ccn2nc(-c3ccc(F)cc3)c(-c3ccncc3)c2c1.Cl" with its measured %Inh.
Response: 2

Request: Annotate the compound "CCn1c(-c2nonc2N)nc2cncc(CNC3CCNCC3)c21.Cl" with its measured %Inh.
Response: 6

Request: Annotate the compound "CC(=O)Nc1ccc(-c2cc3ncnc(SCC(=O)O)c3s2)cc1" with its measured %Inh.
Response: 28

Request: Annotate the compound "O=C(Nc1n[nH]c2cc(-c3ccco3)ccc12)C1CC1" with its measured %Inh.
Response: 0

Request: Annotate the compound "C[C@@H]1CCN(C(=O)N2CCCC2)C[C@@H]1N(C)c1ncnc2[nH]ccc12" with its measured %Inh.
Response: 1

Request: Annotate the compound "Cn1ccc2ncnc(Oc3ccc(NC(=O)Nc4cnn(C(C)(C)C)c4)c(Cl)c3)c21" with its measured %Inh.
Response: 0

Request: Annotate the compound "CN(c1cccc(CNc2nc(Nc3ccc4c(c3)CC(=O)N4)ncc2C(F)(F)F)c1)S(C)(=O)=O" with its measured %Inh.
Response: 3

====

test system: CDK8; conditions: concentration: 1 μM,replicates: in singlicate; n = 1
Please provide measured %Inh for the entries that follow.
Answer in %, number only, no unit symbol.

Request: Annotate the molecule "Cn1ccc2ncnc(Oc3ccc(NC(=O)Nc4cccc(C(F)(F)F)c4)c(F)c3)c21" with its measured %Inh.
Response: 100

Request: Annotate the molecule "CN(c1ccccc1CNc1nc(Nc2ccc3c(c2)CC(=O)N3)ncc1C(F)(F)F)S(C)(=O)=O" with its measured %Inh.
Response: 0

Request: Annotate the molecule "Cc1ccc(Nc2ccnc(Nc3ccc4c(c3)CS(=O)(=O)C4)n2)cc1O.Cl" with its measured %Inh.
Response: 38

Request: Annotate the molecule "C[C@@H]1CNc2c(sc3ccc4nc(-c5ccncc5)ccc4c23)C(=O)N1" with its measured %Inh.
Response: 7

Request: Annotate the molecule "NC(=O)c1ccc(-c2cc3ncnc(SCC(=O)O)c3s2)cc1" with its measured %Inh.
Response: 0

Request: Annotate the molecule "Cc1n[nH]c2cc(Nc3ccnc(Nc4cccc(CN5CCOCC5)c4)n3)ccc12" with its measured %Inh.
Response: 35

Request: Annotate the molecule "Cl.c1ccc(Oc2ccc(Nc3ccnc4cc(-c5ccc(CN6CCNCC6)o5)ccc34)cc2)nc1" with its measured %Inh.
Response: 0

Request: Annotate the molecule "O=C(Nc1ccccc1)c1cccc(Oc2ccc3nccn3n2)c1" with its measured %Inh.
Response: 0

Request: Annotate the molecule "Cn1ccc2ncnc(Oc3ccc(NC(=O)Nc4cnn(C(C)(C)C)c4)c(Cl)c3)c21" with its measured %Inh.
Response: 97.1
